Target: Protein-glutamine gamma-glutamyltransferase (Homo sapiens, UniProt P21980)
Sequence (P21980 whole entry): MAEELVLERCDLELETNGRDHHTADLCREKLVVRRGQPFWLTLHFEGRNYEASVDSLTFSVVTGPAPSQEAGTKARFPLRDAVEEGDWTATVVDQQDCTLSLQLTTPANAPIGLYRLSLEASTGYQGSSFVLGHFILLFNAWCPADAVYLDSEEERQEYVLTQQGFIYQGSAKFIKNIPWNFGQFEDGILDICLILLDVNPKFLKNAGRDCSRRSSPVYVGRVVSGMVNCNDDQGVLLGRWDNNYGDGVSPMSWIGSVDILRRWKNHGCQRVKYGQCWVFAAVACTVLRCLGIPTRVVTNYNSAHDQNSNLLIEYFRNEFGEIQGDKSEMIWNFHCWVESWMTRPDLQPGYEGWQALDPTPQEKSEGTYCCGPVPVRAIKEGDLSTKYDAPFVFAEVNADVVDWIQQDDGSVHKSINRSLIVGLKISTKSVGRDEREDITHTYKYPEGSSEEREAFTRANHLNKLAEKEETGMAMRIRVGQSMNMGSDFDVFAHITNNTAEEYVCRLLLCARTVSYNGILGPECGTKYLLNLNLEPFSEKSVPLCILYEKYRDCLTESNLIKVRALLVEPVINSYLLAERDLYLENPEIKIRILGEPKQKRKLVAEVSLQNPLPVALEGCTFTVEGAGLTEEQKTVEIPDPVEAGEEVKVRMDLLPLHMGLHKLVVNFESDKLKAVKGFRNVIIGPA
Assay: Inhibition of human transglutaminase 2 using Cbz-Gln-Gly as a substrate by GDH-coupled assay
property: Ki

The examples below pair each entry with its known result.
smiles input: O=C1Nc2cccc(Cl)c2/C1=C\C(=O)c1ccccc1
Ki: 3.3 µM
--
smiles input: O=C1Nc2ccc(Br)cc2/C1=C\C(=O)c1cccnc1
Ki: 3 µM
--
smiles input: O=C1Nc2cccc(Br)c2/C1=C\C(=O)c1cccnc1
Ki: 0.4 µM
--
smiles input: CC(=O)/C=C1/C(=O)Nc2ccc(Cl)cc21
Ki: 0.9 µM

// query Check the records and state Ki for `CN1C(=O)/C(=C/C(=O)c2cccnc2)c2c(Cl)cccc21`
// result 4 µM

// query Check the records and state Ki for `O=C1Nc2ccc(Cc3ccc4c(c3)C(=O)C(=O)N4)cc2C1=O`
// result 15 µM
